// data source = patent US11407715B2

Assay: in vitro
Details: African green monkey
CC50 values by entry
Your answer should be a plain number; it is taken to be in µM.

Look over these answered cases.
COc1cc(NC(C(=O)N2CCc3ccc(OC(F)(F)F)cc32)c2ccc(Cl)cc2)cc(OC23CC(C(=O)O)(C2)C3)c1 (single isomer, unassigned): 11
COc1cc(NC(C(=O)N2CCc3ccc(OC(F)(F)F)cc32)c2ccc(Cl)cc2)cc(OCCC(C)C(=O)O)c1 (single isomer, unassigned) [Compound 1C]: 12
COc1cc(NC(C(=O)N2CCc3ccc(OC(F)(F)F)cc32)c2ccc(Cl)cc2)cc(OCCC(=O)O)c1 (racemic) [Compound 12]: 11
COc1cc(NC(C(=O)N2CCc3cc(OC)c(C(F)(F)F)cc32)c2ccc(Cl)cc2)cc(O[C@H]2C[C@@H](C(=O)O)C2)c1 (stereo partly drawn): 12
COc1cc(NC(C(=O)N2CCc3cc(OC)c(C(F)(F)F)cc32)c2ccc(Cl)cc2)cc(OCCC(C)(C)C(=O)O)c1 (single isomer, unassigned) [Compound 21A]: 11
COc1cc(NC(C(=O)N2CCc3cc(OC)c(C(F)(F)F)cc32)c2ccc(Cl)cc2)cc(OCC2CC2C(=O)O)c1 (stereo not drawn) [Compound 22AA]: 13
COc1cc(CCCC(=O)O)cc(NC(C(=O)N2CCc3ccc(OC(F)(F)F)cc32)c2ccc(Cl)cc2)c1 (racemic) [Compound 15]: 8.3
COc1cc(NC(C(=O)N2CCc3ccc(OC(F)(F)F)cc32)c2ccc(Cl)cc2)cc(OCCCCC(=O)O)c1 (single isomer, unassigned) [Compound 13A]: 9.1
COc1cc(NC(C(=O)N2CCc3ccc(OC(F)(F)F)cc32)c2ccc(Cl)cc2OC)cc(OCCC(C)(C)C(=O)O)c1 (racemic) [Compound 18]: 11
COc1cc(NC(C(=O)N2CCc3ccc(OC(F)(F)F)cc32)c2ccc(Cl)cc2)cc(OC2CC(C(=O)O)C2)c1 (stereo not drawn): 12

Q. Which CC50 reading was recorded for the molecule COc1cc(NC(C(=O)N2CCc3ccc(OC(F)(F)F)cc32)c2ccc(Cl)cc2OC)cc(OCCC(C)(C)C(=O)O)c1 (single isomer, unassigned) [Compound 18A] ?
A. 12

Q. Which CC50 reading was recorded for the molecule COc1cc(CCCCC(=O)O)cc(NC(C(=O)N2CCc3ccc(OC(F)(F)F)cc32)c2ccc(Cl)cc2)c1 (racemic) [Compound 14] ?
A. 9.6
